Value source: ChEMBL document CHEMBL2375304

Listing of entries alongside the reported inhibition of growth at 10 µM.
system: UACC-62; assay: Growth inhibition of human UACC62 cells at 10^-5 M after 48 hrs by Sulforhodamine B assay relative to control; assay type: functional; details: UACC-62, 48 h, read-out: GI
Could you give me the number in %? Just the number is fine.

// worked examples, inhibition of growth at 10 µM included
> print(dat)
                  compound.structure.string  units.label  result.number
1  COc1ccc(N2CCN(c3nc(-c4ccncc4)nc4sc5c(c34)CCCCCC5)CC2)cc1            %           36.9
2      Clc1nc(-c2ccccn2)nc2sc3c(c12)CCCCCC3            %           4.04
3      Clc1nc(-c2ccncc2)nc2sc3c(c12)CCCCCC3            %           6.14

Turning now to a further record.
Req: Report inhibition of growth at 10 µM for c1cc(-c2nc(N3CCOCC3)c3c4c(sc3n2)CCCCCC4)ccn1 tested on UACC-62.
Resp: 15.5
